Test system: Monocotyledonous and dicotyledonous test plants
assay-summary: Example B1 herbicidal action, application post-emergence (Table B1a)
Assay type: in vivo
test-context: Sida, 250 g/ha, evaluated after 3 weeks, scale 0-10
For each entry below, report its herbicidal damage rating, Sida value.

[ask] Suppose we examine the molecule Cn1nc(C(F)(F)F)c(C(Br)S(=O)(=O)C2=NOC(C)(C)C2)c1OCC(F)(F)F (stereo not drawn) [2.10] ; what herbicidal damage rating, Sida value has been reported?
[reply] 4

[ask] Suppose we examine the molecule CC1(C)CC(S(=O)(=O)C(Cl)(Br)c2c(F)cccc2F)=NO1 (stereo not drawn) [Compound No. 1.53] ; what herbicidal damage rating, Sida value has been reported?
[reply] 2

[ask] Suppose we examine the molecule Cc1ccccc1C(F)S(=O)(=O)C1=NOC(C)(C)C1 (racemic) [1.93] ; what herbicidal damage rating, Sida value has been reported?
[reply] 2

[ask] Suppose we examine the molecule C#CCC(c1c(F)cccc1F)S(=O)(=O)C1=NOC(C)(C)C1 (stereo not drawn) [Compound No. 1.02] ; what herbicidal damage rating, Sida value has been reported?
[reply] 5

[ask] Suppose we examine the molecule CC1(C)CC(S(=O)(=O)C(F)(Cl)c2cc(F)ccc2F)=NO1 (stereo not drawn) [1.126] ; what herbicidal damage rating, Sida value has been reported?
[reply] 5

[ask] Suppose we examine the molecule Cn1nc(C(F)(F)F)c(C(F)(F)S(=O)(=O)C2=NOC(C)(C)C2)c1Cl [2.03] ; what herbicidal damage rating, Sida value has been reported?
[reply] 6

[ask] Suppose we examine the molecule CC1(C)CC(S(=O)(=O)C(F)(F)c2c(F)cccc2F)=NO1 [1.20] ; what herbicidal damage rating, Sida value has been reported?
[reply] 5

[ask] Suppose we examine the molecule CC1(C)CC(S(=O)(=O)C(F)(F)c2cc(F)ccc2F)=NO1 [1.114] ; what herbicidal damage rating, Sida value has been reported?
[reply] 2

[ask] Suppose we examine the molecule COc1ccccc1C(F)S(=O)(=O)C1=NOC(C)(C)C1 (stereo not drawn) [1.104] ; what herbicidal damage rating, Sida value has been reported?
[reply] 2

* * *

Tested on: Monocotyledonous and dicotyledonous test plants
assay-summary: Example B1 herbicidal action, application post-emergence (Table B1a)
Format: in vivo
test-context: Sida, 250 g/ha, evaluated after 3 weeks, scale 0-10
Procedure: Monocotyledonous and dicotyledonous test plants were sown in seed trays in standard soil. […] After a test duration of 3 weeks (post-emergence) or 4 weeks (pre-emergence), the test was evaluated (10=total damage to plant, 0=no damage to plant).
For each entry below, report its herbicidal damage rating, Sida value.
// no unit, no text: just the number

[ask] Suppose we examine the molecule CC1(C)CC(S(=O)(=O)C(F)(Br)c2c(F)cccc2F)=NO1 (stereo not shown) ; what herbicidal damage rating, Sida value has been reported?
[reply] 4

[ask] Suppose we examine the molecule CC1(C)CC(S(=O)(=O)C(F)(Cl)c2ccccc2C#N)=NO1 (racemic) ; what herbicidal damage rating, Sida value has been reported?
[reply] 2

[ask] Suppose we examine the molecule Cc1ccccc1C(F)(Cl)S(=O)(=O)C1=NOC(C)(C)C1 (racemic) ; what herbicidal damage rating, Sida value has been reported?
[reply] 3

[ask] Suppose we examine the molecule `CC1(C)CC(S(=O)(=O)C(F)(F)c2ccc(F)cc2F)=NO1` ; what herbicidal damage rating, Sida value has been reported?
[reply] 3

* * *

measurement-label: melting point (°C)
Write it as a number; the unit °C goes unstated.

[ask] Suppose we examine the compound C=CC1CC1(c1c(F)cccc1F)S(=O)(=O)C1=NOC(C)(C)C1 (stereo not drawn) [Compound No. 1.46] ; what melting point value has been reported?
[reply] 117

[ask] Suppose we examine the compound Cc1cccc(C(Cl)S(=O)(=O)C2=NOC(C)(C)C2)c1 (stereo not drawn) [Compound No. 1.30] ; what melting point value has been reported?
[reply] 102

[ask] Suppose we examine the compound CC1(C)CC(S(=O)(=O)C(I)c2c(F)cccc2F)=NO1 (stereo not drawn) [Compound No. 1.25] ; what melting point value has been reported?
[reply] 156

[ask] Suppose we examine the compound COCC(c1c(F)cccc1F)S(=O)(=O)C1=NOC(C)(C)C1 (stereo not drawn) [Compound No. 1.51] ; what melting point value has been reported?
[reply] 102

[ask] Suppose we examine the compound Cc1cccc(C(Cl)(Cl)S(=O)(=O)C2=NOC(C)(C)C2)c1 [Compound No. 1.31] ; what melting point value has been reported?
[reply] 89

* * *

Tested on: Monocotyledonous and dicotyledonous test plants
assay-summary: Example B1 herbicidal action, application pre-emergence (Table B1b)
Type: in vivo
test-context: Digitaria, 250 g/ha, evaluated after 4 weeks
For each entry below, report its herbicidal action (damage rating 0-10), Digitaria value.

[ask] Lookup: herbicidal action (damage rating 0-10), Digitaria / Monocotyledonous and dicotyledonous test plants / CC(=O)C(c1c(F)cccc1F)S(=O)(=O)C1=NOC(C)(C)C1 (stereo not drawn)
[reply] 4

[ask] Lookup: herbicidal action (damage rating 0-10), Digitaria / Monocotyledonous and dicotyledonous test plants / CC1(C)CC(S(=O)(=O)C(Cn2ccnc2)c2c(F)cccc2F)=NO1 (racemic)
[reply] 7

[ask] Lookup: herbicidal action (damage rating 0-10), Digitaria / Monocotyledonous and dicotyledonous test plants / CC1(C)CC(S(=O)(=O)C(F)(Br)c2c(F)cccc2F)=NO1 (stereo not drawn)
[reply] 10

[ask] Lookup: herbicidal action (damage rating 0-10), Digitaria / Monocotyledonous and dicotyledonous test plants / Cc1noc(C)c1C(Cl)S(=O)(=O)C1=NOC(C)(C)C1 (stereo not drawn)
[reply] 9

[ask] Lookup: herbicidal action (damage rating 0-10), Digitaria / Monocotyledonous and dicotyledonous test plants / `CC1(C)CC(S(=O)(=O)C(F)(F)c2ccccc2C(F)(F)F)=NO1`
[reply] 10

[ask] Lookup: herbicidal action (damage rating 0-10), Digitaria / Monocotyledonous and dicotyledonous test plants / CC1(C)CC(S(=O)(=O)C(F)(Cl)c2ccccc2[S+]([O-])C(F)(F)F)=NO1 (stereo not drawn)
[reply] 10

* * *

Test system: Monocotyledonous and dicotyledonous test plants
assay-summary: Example B1 herbicidal action, application post-emergence (Table B1a)
Format: in vivo
test-context: Digitaria, 250 g/ha, evaluated after 3 weeks, scale 0-10
For each entry below, report its herbicidal damage rating, Digitaria value.
// no unit, no text: just the number

[ask] Suppose we examine the compound CC1(C)CC(S(=O)(=O)C(F)(Cl)c2c(F)cccc2F)=NO1 (stereo not shown) [Compound No. 1.21] ; what herbicidal damage rating, Digitaria value has been reported?
[reply] 7

[ask] Suppose we examine the compound CC1(C)CC(S(=O)(=O)C(F)(Cl)c2ccccc2OC(F)(F)F)=NO1 (stereo not shown) [1.144] ; what herbicidal damage rating, Digitaria value has been reported?
[reply] 8

[ask] Suppose we examine the compound Cn1nc(C(F)(F)F)c(C(F)(F)S(=O)(=O)C2=NOC(C)(C)C2)c1OC(F)F [2.11] ; what herbicidal damage rating, Digitaria value has been reported?
[reply] 7

[ask] Suppose we examine the compound CC1(C)CC(S(=O)(=O)C(Cl)c2c(F)cccc2F)=NO1 (stereo not shown) [Compound No. 1.07] ; what herbicidal damage rating, Digitaria value has been reported?
[reply] 5

[ask] Suppose we examine the compound CC1(C)CC(S(=O)(=O)C(Br)c2c(F)cccc2C(F)(F)F)=NO1 (racemic) [1.80] ; what herbicidal damage rating, Digitaria value has been reported?
[reply] 8

[ask] Suppose we examine the compound CC1(C)CC(S(=O)(=O)C(F)(F)c2ccccc2SC(F)(F)F)=NO1 [1.70] ; what herbicidal damage rating, Digitaria value has been reported?
[reply] 8

[ask] Suppose we examine the compound CC1(C)CC(S(=O)(=O)C(Br)c2cccc(F)c2F)=NO1 (stereo not shown) [1.132] ; what herbicidal damage rating, Digitaria value has been reported?
[reply] 8

[ask] Suppose we examine the compound CC1(C)CC(S(=O)(=O)C(F)(Cl)c2ccc(F)cc2F)=NO1 (stereo not shown) [1.133] ; what herbicidal damage rating, Digitaria value has been reported?
[reply] 8

[ask] Suppose we examine the compound CC1(C)CC(S(=O)(=O)C(F)(F)c2cc(F)ccc2F)=NO1 [1.114] ; what herbicidal damage rating, Digitaria value has been reported?
[reply] 8

[ask] Suppose we examine the compound COc1cc(OC)cc(C(F)(Cl)S(=O)(=O)C2=NOC(C)(C)C2)c1 (racemic) [1.96] ; what herbicidal damage rating, Digitaria value has been reported?
[reply] 8

[ask] Suppose we examine the compound Cc1ccc(F)c(C(F)(Cl)S(=O)(=O)C2=NOC(C)(C)C2)c1F (stereo not shown) [1.146] ; what herbicidal damage rating, Digitaria value has been reported?
[reply] 8

[ask] Suppose we examine the compound CC1(C)CC(S(=O)(=O)C(Br)c2ccccc2C#N)=NO1 (racemic) [1.83] ; what herbicidal damage rating, Digitaria value has been reported?
[reply] 9

[ask] Suppose we examine the compound CC1(C)CC(S(=O)(=O)C(F)(Cl)c2cccc(F)c2F)=NO1 (stereo not shown) [1.148] ; what herbicidal damage rating, Digitaria value has been reported?
[reply] 8

[ask] Suppose we examine the compound Cc1cccc(C(Cl)(Cl)S(=O)(=O)C2=NOC(C)(C)C2)c1 [Compound No. 1.31] ; what herbicidal damage rating, Digitaria value has been reported?
[reply] 1

[ask] Suppose we examine the compound CC1(C)CC(S(=O)(=O)C(F)(Cl)c2ccccc2[S+]([O-])C(F)(F)F)=NO1 (stereo not shown) [1.97] ; what herbicidal damage rating, Digitaria value has been reported?
[reply] 8

[ask] Suppose we examine the compound CC1(C)CC(S(=O)(=O)C(F)(F)c2ccccc2-c2ccccc2)=NO1 [1.117] ; what herbicidal damage rating, Digitaria value has been reported?
[reply] 7

[ask] Suppose we examine the compound Cn1nc(C(F)(F)F)c(C(Cl)S(=O)(=O)C2=NOC(C)(C)C2)c1OC(F)F (stereo not shown) [2.16] ; what herbicidal damage rating, Digitaria value has been reported?
[reply] 4

[ask] Suppose we examine the compound CC1(C)CC(S(=O)(=O)C(F)(F)c2ccc(F)cc2F)=NO1 [1.118] ; what herbicidal damage rating, Digitaria value has been reported?
[reply] 8

[ask] Suppose we examine the compound Cc1ccc(F)c(C(Br)S(=O)(=O)C2=NOC(C)(C)C2)c1F (stereo not shown) [1.102] ; what herbicidal damage rating, Digitaria value has been reported?
[reply] 8
